target_under_test: AspH (Homo sapiens)
Sequence (Q12797 315-758): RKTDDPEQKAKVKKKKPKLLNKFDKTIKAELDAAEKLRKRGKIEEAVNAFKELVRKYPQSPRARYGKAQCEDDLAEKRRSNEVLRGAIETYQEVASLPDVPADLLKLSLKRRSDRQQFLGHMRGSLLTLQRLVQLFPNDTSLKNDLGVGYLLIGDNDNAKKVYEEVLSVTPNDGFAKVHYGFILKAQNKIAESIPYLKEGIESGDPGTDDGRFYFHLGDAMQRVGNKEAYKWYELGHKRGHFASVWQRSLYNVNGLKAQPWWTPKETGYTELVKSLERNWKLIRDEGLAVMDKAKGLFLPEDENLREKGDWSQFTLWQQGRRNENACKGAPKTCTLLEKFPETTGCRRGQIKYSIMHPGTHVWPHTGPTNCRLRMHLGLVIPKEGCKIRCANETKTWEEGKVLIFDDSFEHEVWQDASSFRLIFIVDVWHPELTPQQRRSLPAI
test_summary: biochemical
Consider the following compounds and their measured IC50 readings.
Your answer should be a plain number; it is taken to be in µM.

compound="CC(C(=O)O)c1cs/c(=N\\C(=O)CS(=O)(=O)c2ccccc2)n1O (stereo not drawn) [compound 6]" target_under_test="AspH (Homo sapiens)" measured_value=25.6
compound="O=C(CS(=O)(=O)c1ccccc1)/N=c1\\scc(Cn2ccnn2)n1O [compound 12]" target_under_test="AspH (Homo sapiens)" measured_value=83.3
compound="O=C(O)Cc1csc(=NC(=O)C2CCN(S(=O)(=O)c3cccc(Cl)c3)C2)n1O (stereo not drawn) [compound 34]" target_under_test="AspH (Homo sapiens)" measured_value=35
compound="O=C(O)Cc1csc(=NC(=O)C2CCN(S(=O)(=O)Cc3ccccc3)C2)n1O (stereo not drawn) [compound 42]" target_under_test="AspH (Homo sapiens)" measured_value=43.1

# IC50 lookup, item O=C(O)Cc1cs/c(=N\C(=O)CS(=O)(=O)c2ccccc2)n1O [compound 4] 9.6

Param item: Cc1s/c(=N\C(=O)CS(=O)(=O)c2ccccc2)n(O)c1CC(=O)O [compound 7] 24.3

Please answer likewise for O=C(O)Cc1cs/c(=N\C(=O)CCNC(=O)c2ccccc2)n1O [compound 17] 28.3

The origin of these recorded values is paper PMC10631261.
